# system-name: T1, UFC1 (recombinant, GST tag cleaved) (UniProt Q9Y3C8 1-167)
# T1 sequence: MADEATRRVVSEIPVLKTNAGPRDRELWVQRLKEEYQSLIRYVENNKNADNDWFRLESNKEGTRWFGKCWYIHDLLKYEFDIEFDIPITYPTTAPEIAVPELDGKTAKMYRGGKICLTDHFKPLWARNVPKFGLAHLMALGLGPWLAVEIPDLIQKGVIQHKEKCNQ
# test-name: ITC
observable: Kd (nM)
One number for each entry, in nM.

Exercise: Value lookup for Kd; key = MADAWEEIRRLAADFQRAQFA [UFL1 (1-21), UFC1-binding sequence peptide]
Solution: 410

Sourced from paper PMC10438457
